Test: chemical genetic growth profiling, strain panel (AID 1159580);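 further: tested at 20 µM; growth read once vehicle control cultures reached saturation at 30 °C; 1 = growth at the plate median or of vehicle wells; lower values mean less growth of the strain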
Conditions: S. cerevisiae deletion strains, growth OD, locus YPR141C, strain kar3, stronger effect = lower value
Among all 5,500 compounds or so, about 2,000 (36%) were called active. Inconclusive results (about 18%) are left out. This is one part of the list. *1 amine or outer side, *2 acyl side, *3 side chain or, on linkers, in order; H or OH if unused. Where a SMILES comes first, the peptide text is derived from it. Bridges are numbered along the chain shown (N, C = ends). [ ]: non-standard residue; d: D form. The star is where a group is joined. ξ: configuration not given here. ΔAla(E,3-NHCONH2) = NC(=O)N/C=C(/N)C(=O)O; X2 = NC1=NCCC(C(N[*:1])C(=O)[*:2])N1; ξβ3hOrn = NCCCC(N)CC(=O)*; Dap = NC[CH](N)C(=O)O
parameter: normalized growth

1) NCCCC(N)CC(=O)NCC1NC(=O)C(CO)NC(=O)C(N)CNC(=O)C(C2CCN=C(N)N2)NC(=O)/C(=C\NC(N)=O)NC1=O (stereo not drawn) (H-[Dap]S[Dap](ξβ3hOrn)[ΔAla(E,3-NHCONH2)][X2]; lactam 1-C; configuration not given here)	1.01
2) Cc1cc(C(C)(C)C)cc(C)c1CC1=NCCN1	1.01
3) O=c1oc2c(O)c(O)cc3c(=O)oc4c(O)c(O)cc1c4c23	0.987
4) Cc1cc(=O)n(-c2ccccc2)n1C	0.995
5) Cc1cc(C(C)(C)C)c(O)c(C)c1CC1=NCCN1	1.01

* * *

Experiment: chemical genetic growth profiling, strain panel (AID 1159580)
Conditions: S. cerevisiae deletion strains, growth OD, locus YBR009C, strain hhf1, stronger effect = lower value
The campaign covered roughly 5,500 compounds. About 2,000 (36%) were called active. Inconclusive results (about 18%) are left out. Some of the results follow. Where a SMILES comes first, the peptide text is derived from it. Side-chain parts run from the residue outwards. [ ]: non-standard residue; d: D form. The star is where a group is joined. X1 = CCC(C)C(N)C1=NC(C(=O)*)CS1; Orn = NCCC[CH](N)C(=O)O
# normalized growth values compiled below
parameter: normalized growth

1. CC[C@@H](CO)NC(=O)[C@@H]1C=C2c3cccc4[nH]cc(c34)C[C@H]2N(C)C1	0.992
2. NC(=O)N1c2ccccc2C=Cc2ccccc21	1.02
3. CC(C)CC1NC(=O)C(CCCN)NC(=O)C(C(C)C)NC(=O)C2CCCN2C(=O)C(Cc2ccccc2)NC(=O)C(CC(C)C)NC(=O)C(CCCN)NC(=O)C(C(C)C)NC(=O)C2CCCN2C(=O)C(Cc2ccccc2)NC1=O (stereo not given) (cyclo(FPV[Orn]LFPV[Orn]L); configuration not given here)	1.01
4. Cc1onc(-c2ccccc2)c1C(=O)NC1C(=O)N2[C@@H]1SC(C)(C)[C@@H]2C(=O)O (stereo not given in full)	1.02
5. CCC(C)C(N)C1=NC(C(=O)NC(CC(C)C)C(=O)NC(CCC(=O)O)C(=O)NC(C(=O)NCCCCC2NC(=O)C(CC(N)=O)NC(=O)C(CC(=O)O)NC(=O)C(Cc3cnc[nH]3)NC(=O)C(Cc3ccccc3)NC(=O)C(C(C)CC)NC(=O)C(CCCN)NC2=O)C(C)CC)CS1 (stereo not drawn) (cyclo(DNK([Ile-Glu-Leu-X1])[Orn]IFH); configuration not given here)	0.952

* * *

# normalized growth values compiled below
Assay: chemical genetic growth profiling, strain panel (AID 1159580)
Conditions: S. cerevisiae deletion strains, growth OD, locus YLR342W, strain FKS1 (second series), stronger effect = lower value
Out of some 5,500 compounds screened, about 2,000 (36%) were called active. Not shown: some 18% with an inconclusive outcome. Some of the results follow.
parameter: normalized growth

1) O=c1oc2c(O)c(O)cc3c(=O)oc4c(O)c(O)cc1c4c23	0.401
2) CC(=O)Oc1cc2c(c(C)c1OC(C)=O)CC1OC13C2(C)CCC1(C)C2CC(C)(C(=O)O)CCC2(C)CCC13C (centres undefined)	1
3) COC(=O)[C@]1(C)CC[C@]2(C)CC[C@]3(C)C4=CC=C5C(=CC(=O)C(O)=C5C)[C@]4(C)CC[C@@]3(C)[C@@H]2C1	0.71
4) CO[C@@]1(NC(=O)Cc2cccs2)C(=O)N2C(C(=O)O)=C(COC(N)=O)CS[C@@H]21	0.985

* * *

Assay: chemical genetic growth profiling, strain panel (AID 1159580);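 further: tested at 20 µM; growth read once vehicle control cultures reached saturation at 30 °C; 1 = growth at the plate median or of vehicle wells; lower values mean less growth of the strain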
Details: S. cerevisiae deletion strains, growth OD, locus YDR137W, strain rgp1, stronger effect = lower value
Among all 5,500 compounds or so, about 2,000 (36%) were called active. Inconclusive results (about 18%) are left out. The list shows a part of the results.
# normalized growth values compiled below
parameter: normalized growth

1. COc1cc2c(cc1O)CCNC2C (stereo not drawn)	0.99
2. NC[C@H]1O[C@H](O[C@H]2[C@H](O)[C@@H](O[C@H]3O[C@H](CO)[C@@H](O)[C@H](N)[C@H]3O)[C@H](N)C[C@@H]2N)[C@H](N)C[C@@H]1O	0.99
3. NC[C@H]1O[C@H](O[C@H]2C(O[C@@H]3O[C@H](CO)[C@@H](O)[C@H]3O)[C@@H](O)[C@H](N)C[C@@H]2N)[C@H](N)[C@@H](O)[C@@H]1O (stereo partly drawn)	1.02
4. COc1ccc2c(=O)ccoc2c1	1.03
5. O=c1[nH]cnc2c1ncn2C1O[C@H](CO)[C@@H](O)[C@H]1O (stereo partly drawn)	1.01
6. COc1ccc2c(c1)[C@]13CCCC[C@H]1[C@H](C2)N(C)CC3	0.999
7. CN[C@@H]1[C@@H](O[C@H]2O[C@H](CO)[C@@H](N)[C@H](O)[C@H]2O)O[C@H]2C[C@@H](N)[C@H](O[C@H]3[C@H](O)[C@@H](O)[C@H](N)C[C@@H]3N)O[C@@H]2[C@@H]1O	0.702
8. Cc1cc(=O)n(-c2ccccc2)n1C	0.978

* * *

Test: chemical genetic growth profiling, strain panel (AID 1159580);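 further: tested at 20 µM; growth read once vehicle control cultures reached saturation at 30 °C; 1 = growth at the plate median or of vehicle wells; lower values mean less growth of the strain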
Settings: S. cerevisiae deletion strains, growth OD, locus YOR290C, strain snf2, stronger effect = lower value
About 2,000 (36%) of roughly 5,500 compounds were called active. Roughly 18% stayed inconclusive and do not appear here. The list shows a part of the results.
Rule: normalized growth below 1 gives Satisfied. Equal to or above 1 gives Not satisfied.

1. CC(=O)OCC(=O)[C@@]1(O)CCC2C3CCC4=CC(=O)CC[C@]4(C)C3[C@@H](O)C[C@@]21C (stereo not given in full)	Not satisfied
2. CO[C@@]1(NC(=O)Cc2cccs2)C(=O)N2C(C(=O)O)=C(COC(N)=O)CS[C@@H]21	Satisfied
3. C[C@]12CCC(=O)C=C1CCC1C2C(=O)C[C@@]2(C)C1CC[C@]2(O)C(=O)CO (stereo not given in full)	Satisfied
4. CN1CCN(CCCN2c3ccccc3Sc3ccc(C(F)(F)F)cc32)CC1	Satisfied
5. CC1=NN(c2ccccc2)C(=O)C1	Satisfied
6. CC1=C(O)C(=O)C=C2C1=CC=C1[C@@]2(C)CC[C@@]2(C)[C@@H]3C[C@](C)(C(=O)O)CC[C@]3(C)CC[C@]12C	Satisfied
7. CN(C)C(=N)N=C(N)N	Not satisfied
8. CC(=O)NO	Satisfied
9. COc1ccc([C@H]2COc3c(ccc(O)c3OC)C2)c(OC)c1O	Satisfied

* * *

Test: chemical genetic growth profiling, strain panel (AID 1159580);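 further: tested at 20 µM; growth read once vehicle control cultures reached saturation at 30 °C; 1 = growth at the plate median or of vehicle wells; lower values mean less growth of the strain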
Settings: S. cerevisiae deletion strains, growth OD, locus YDR318W, strain mcm21
The whole screen tested about 5,500 compounds, of which about 2,000 (36%) were called active. Roughly 18% stayed inconclusive and do not appear here. Rule as the data show it: active = normalized growth mostly below about 0.91 (no sharp cut-off); inconclusive = no clear call, values can overlap the other calls; inactive = mostly above about 0.92. The list shows a part of the results.
Labels: T for active, F for inactive

1) CCOc1ccc(C(=O)c2cc(O)c(OC)c(OC)c2O)cc1	F
2) C[C@]12CCC(=O)C=C1CCC1C2[C@@H](O)C[C@@]2(C)C1CC[C@]2(O)C(=O)COC(=O)CCC(=O)O (some centres undefined)	F
3) CCOc1ccc(C(=O)c2ccc(O)c(O)c2O)cc1	T
4) O=c1oc2c(O)c(O)cc3c(=O)oc4c(O)c(O)cc1c4c23	T
5) CC(=O)Oc1cccc(C(=O)O)c1OC(C)=O	F
6) O=c1c(O)c(-c2ccc(O)c(O)c2)oc2cc(O)ccc12	F
7) CC(=O)CC1CCCCN1 (centres undefined)	F
8) CCOc1ccc(NC(C)=O)cc1	F
9) COc1ccc(C(=O)c2ccccc2)c(O)c1O	F
10) CN1C(=O)CCS(=O)(=O)C1c1ccc(Cl)cc1 (centres undefined)	F
11) CCN(CC)CCNC(=O)c1cc(Cl)c(N)cc1OC	F
12) CC1=NN(c2ccccc2)C(=O)C1	T
13) CC(=O)NO	F
14) CC[C@@H](CO)NC(=O)[C@@H]1C=C2c3cccc4[nH]cc(c34)C[C@H]2N(C)C1	F
15) CCCc1nc2c(C)cc(-c3nc4ccccc4n3C)cc2n1Cc1ccc(-c2ccccc2C(=O)O)cc1	F
16) COc1ccc(C(=O)c2ccc(O)cc2)c(O)c1O	F
17) CN1CCN(CC(=O)N2c3ccccc3C(=O)Nc3cccnc32)CC1	F
18) O=c1[nH]cnc2c1ncn2C1O[C@H](CO)[C@@H](O)[C@H]1O (some centres undefined)	F
19) CCCCc1nc(Cl)c(CO)n1Cc1ccc(-c2ccccc2-c2nn[nH]n2)cc1	F
20) CN1CCN(CCCN2c3ccccc3Sc3ccc(C(F)(F)F)cc32)CC1	T
21) C[C@]12CCC(=O)C=C1CCC1C2C(=O)C[C@@]2(C)C1CC[C@]2(O)C(=O)CO (some centres undefined)	F
22) Cc1ccc(N(CC2=NCCN2)c2cccc(O)c2)cc1	F
23) CN1CCN(CCC=C2c3ccccc3Sc3ccc(S(=O)(=O)N(C)C)cc32)CC1	T
24) COc1cc2c(cc1OC)[C@@H]1C(=O)c3ccc4c(c3O[C@@H]1CO2)CC(C(C)C)O4 (some centres undefined)	F
25) CC(N)C(O)c1ccc(O)c(O)c1 (centres undefined)	F
26) C=C(C)[C@@H]1CC[C@]2(CO)CC[C@]3(C)[C@H](CCC4[C@@]5(C)CC[C@H](O)C(C)(C)C5CC[C@]43C)C12 (some centres undefined)	F
27) CC(=O)N[C@@H](Cc1c[nH]c2ccccc12)C(=O)O	F
28) OCCN1CCN(CCCN2c3ccccc3Sc3ccc(C(F)(F)F)cc32)CC1	F
29) COc1ccc(C(=O)O)c(O)c1OC	F
30) Cc1onc(-c2c(Cl)cccc2Cl)c1C(=O)N[C@@H]1C(=O)N2[C@@H]1SC(C)(C)[C@@H]2C(=O)O	F
31) NC(=O)NO	F
32) Cc1cc(C(C)(C)C)c(O)c(C)c1CC1=NCCN1	F
33) CCCCCCCCCCCCCCCCCCOCC(O)CO (centres undefined)	F
34) COc1cc(-c2oc3cc(O)ccc3c(=O)c2O)cc(OC)c1OC	F
35) COc1cc2c(cc1OC)-c1c(oc3c4c(ccc3c1=O)OC(C(C)C)C4)CO2 (centres undefined)	F
36) O=C(OC[C@H]1O[C@H](OC(=O)c2cc(O)c(O)c(OC(=O)c3cc(O)c(O)c(O)c3)c2)[C@H](OC(=O)c2cc(O)c(O)c(OC(=O)c3cc(O)c(O)c(O)c3)c2)[C@@H](OC(=O)c2cc(O)c(O)c(OC(=O)c3cc(O)c(O)c(O)c3)c2)[C@@H]1OC(=O)c1cc(O)c(O)c(OC(=O)c2cc(O)c(O)c(O)c2)c1)c1cc(O)c(O)c(OC(=O)c2cc(O)c(O)c(O)c2)c1	T
37) COc1cccc(O)c1O	F
38) NCCc1c[nH]c2ccccc12	F
39) O=C(CCBr)N1CCN(C(=O)CCBr)CC1	F
40) COc1cc(O)cc(OC)c1OC	F
41) CC(=O)OCC(=O)[C@@]1(O)CCC2C3CCC4=CC(=O)CC[C@]4(C)C3[C@@H](O)C[C@@]21C (some centres undefined)	F
42) C=C(C)[C@H]1Cc2c(ccc3c2O[C@@H]2COc4cc(OC)c(OC)cc4[C@@H]2C3=O)O1	F
43) COc1cc2c(cc1OC)[C@@]13CCN4CC5=CCOC6CC(=O)N2C1[C@H]6[C@H]5C[C@H]43 (some centres undefined)	F
44) COc1c2occc2c(OC)c2c(=O)cc(C)oc12	F
